tested on: plasma cholesterol; test: Plasma cholesterol in cholesterol-cholic acid fed rats; type: in vivo; conditions: Rattus norvegicus, 96 h, oral gavage, four days, 40 mg/kg, read-out: % Decrease in Plasma Cholesterol
Please enter T where change in vivo at 40 mg/kg is greater than or equal to -60%, and F where it is lower.

// query For this compound, is measured change in vivo at 40 mg/kg -60% or higher? CCCCCC(C)N(Cc1ccc(OCCC(C)C)cc1)C(Nc1ccc(OC)cc1OC)=C1C(=O)OC(C)(C)OC1=O (stereo not shown)
// result T

// query For this compound, is measured change in vivo at 40 mg/kg -60% or higher? CCCCCC(C)N(Cc1ccc(OCCC(C)C)cc1)C(Nc1ccc(N(C)C)cc1)=C1C(=O)OC(C)(C)OC1=O (stereo not shown)
// result T

// query For this compound, is measured change in vivo at 40 mg/kg -60% or higher? CCCCCC(C)N(Cc1ccc(C(C)(C)C)cc1)C(Nc1ccc(OCCCC)cc1)=C1C(=O)OC(C)(C)OC1=O (stereo not shown)
// result T

// query For this compound, is measured change in vivo at 40 mg/kg -60% or higher? CCCCCCOc1ccc(NC(=C2C(=O)OC(C)(C)OC2=O)N(Cc2ccc(CC(C)C)cc2)C(C)CCCCC)cc1 (stereo not shown)
// result F

// query For this compound, is measured change in vivo at 40 mg/kg -60% or higher? CCCCOc1ccc(NC(=C2C(=O)OC(C)(C)OC2=O)N(Cc2ccc(C(C)(C)C)cc2)C(C)CCCC(C)C)cc1 (stereo not shown)
// result T

// query For this compound, is measured change in vivo at 40 mg/kg -60% or higher? COc1ccc(NC(=C2C(=O)OC(C)(C)OC2=O)N(Cc2ccc(CC(C)C)cc2)C(C)CCCC(C)C)c(OC)c1 (stereo not shown)
// result F

// query For this compound, is measured change in vivo at 40 mg/kg -60% or higher? CCCCCc1ccc(CN(C(Nc2ccc(OC)cc2OC)=C2C(=O)OC(C)(C)OC2=O)C(C)CCCCC)cc1 (stereo not shown)
// result F
